In this section, each of the variants is paired with its reported protein stability index.
B1: LYSMD4 (parent)
chain: LLQRELAQEDSLNKLALQYGCKVA

- Variants of: B1
- Protocol Notes: protein stability index of a GFP-peptide fusion (GPS, HEK-293T) (PSI 1-6); higher = more stable;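 note: lentivirally expressed fusions sorted by FACS into six bins by GFP to DsRed ratio, PSI derived from sequencing read proportions per bin multiplied by bin number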
- Test Settings: c terminus: a fixed tail appended
Outcome Measure: protein stability index

Residue Sequence	Numeric Result
LLQRELAQEDSLNKLALVYGCKVA	2.25
LLQRELAQEESLNKLALQYGCKVA	1.83
WLQRELAQEDSLNKLALQYGCKVA	2.31
LLQKELAQEDSLNKLALQYGCKVA	2.82
LLQRELAQEDSLNKLALQYGCKVW	4.48
LLQRELAQEDSLNKVALQYGCKVA	1.62
LLQRELAQEDSYNKLALQYGCKVA	2.38
LLQRELAQERSLNKLALQYGCKVA	1.68
LLQRELAQEDSLNKLALQAGCKVA	3.17
LLQRELDQEDSLNKLALQYGCKVA	2.09
LLQRELAQEDSLNKLHLQYGCKVA	3.4
HLQRELAQEDSLNKLALQYGCKVA	1.91
LLQRELAQEDSLNKLALQTGCKVA	3.17
LLQRELAQEDSLNKLALQYGCTVA	1.32
LLQRELAQEDSLNKLQLQYGCKVA	1.86
LLQRELAQEDSLNKLALQYGCIVA	1.78
LLQRELAQEDSLNKLAVQYGCKVA	2.06
LLQRELAQHDSLNKLALQYGCKVA	2.54
LLQRELANEDSLNKLALQYGCKVA	3.38
LLQRELAQEDSLSKLALQYGCKVA	1.84
LLQDELAQEDSLNKLALQYGCKVA	2.08
LLQRELAQEDSLNKLALQYGCQVA	2.21
